Assign IC50 to each entry below.
Molecular target: KRAS G12D/RAF1 (Homo sapiens, UniProt P01116, G12D)
Construct: KRAS (1-169) proteins were expressed in E. coli at 18° C; His6-MBP (N, cleaved yes)
Sequence (P01116 1-169 isoform P01116-2 G12D): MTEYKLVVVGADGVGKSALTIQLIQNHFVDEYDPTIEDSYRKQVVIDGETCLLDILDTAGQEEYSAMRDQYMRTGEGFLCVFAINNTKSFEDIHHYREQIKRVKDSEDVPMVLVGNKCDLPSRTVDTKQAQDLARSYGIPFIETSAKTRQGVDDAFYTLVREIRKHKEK
Assay: Protein-protein interaction (PPI) HTRF assay KRAS G12D/RAF1
Conditions: KRAS G12D/RAF1, GppNHp-loaded KRAS; 30 minutes pre-incubation

A selection of reference data follows.
compound: O=C1NC(=O)C2(CCCN(c3nc(OC[C@@]45CCCN4C[C@H](F)C5)nc4c3COC3(CCc5c(Cl)cccc53)C4)C2)N1 (single isomer, unassigned) [Compound 24A]
readout.kind: IC50
observed: 10 to 100 µM
--
compound: CN1Cc2c(nc(OC[C@@]34CCCN3C[C@H](F)C4)nc2N2C[C@H]3CC[C@@H](C2)N3)C[C@]12CCCc1ccccc12
readout.kind: IC50
observed: > 100 µM
--
compound: CN(C)C(=O)c1nn2c(c1Cl)CN(c1nc(OC[C@@]34CCCN3C[C@H](F)C4)nc3c1CN(C)[C@@]1(CCc4cccc(O)c41)C3)CCC2
readout.kind: IC50
observed: 10 to 100 µM
--
compound: O=C(c1nn2c(c1Cl)CN(c1nc(OC[C@@]34CCCN3C[C@H](F)C4)nc3c1CO[C@@]1(CCc4c(Cl)cccc41)C3)CCC2)N1CCNCC1
readout.kind: IC50
observed: 10 to 100 µM
--
compound: CN(C)C(=O)c1cc2n(n1)CCCN(c1nc(OC[C@@]34CCCN3C[C@H](F)C4)nc3c1CO[C@]1(CCc4c(Cl)cccc41)C3)C2 [Compound 27B]
readout.kind: IC50
observed: 10 to 100 µM
--
compound: CN1CCN(C(=O)c2nn3c(c2Cl)CN(c2nc(OC[C@@]45CCCN4C[C@H](F)C5)nc4c2CO[C@@]2(CCc5c(Cl)cccc52)C4)CCC3)CC1
readout.kind: IC50
observed: 10 to 100 µM

For every record below, what is its IC50?
1. Cc1c(C(=O)N(C)C)nn2c1CN(c1nc(OC[C@@]34CCCN3C[C@H](F)C4)nc3c1CO[C@@]1(CCc4c(Cl)cccc41)C3)CCC2
2. COc1cccc(-c2cc3n(n2)CCCN(c2nc(OC[C@@]45CCCN4C[C@H](F)C5)nc4c2CN(C)[C@@]2(CCCc5ccccc52)C4)C3)n1
3. CN1Cc2c(nc(OC[C@@]34CCCN3C[C@H](F)C4)nc2N2CCCn3nc(CC#N)c(Cl)c3C2)C[C@]12CCCc1ccccc12
4. C[C@@H]1Cn2cncc2CN1c1nc(OC[C@@]23CCCN2C[C@H](F)C3)nc2c1CN(C)[C@@]1(CCCc3ccccc31)C2
5. CN1Cc2c(nc(OC[C@@]34CCCN3C[C@H](F)C4)nc2N2CCCn3nc(-c4nnnn4C)c(Cl)c3C2)C[C@]12CCCc1ccccc12
6. Cc1nc(-c2nn3c(c2Cl)CN(c2nc(OC[C@@]45CCCN4C[C@H](F)C5)nc4c2CN(C)[C@@]2(CCCc5ccccc52)C4)CCC3)no1

10 to 100 µM
> 100 µM
> 100 µM
> 100 µM
> 100 µM
10 to 100 µM
